What melting point was measured for each of the following?

For orientation, consider the following solved cases.
molecule: CCOC(=O)c1c(-c2ccncc2)[nH]c(-c2ccncc2)c1C [Example 11]
melting point: 206 to 208 °C
//
molecule: Cc1c(-c2ccncc2)[nH]c2c1C(=O)CCC2(C)C [Example 82 (3,7,7-trimethyl)]
melting point: 278 to 280 °C
//
molecule: Cc1c(-c2ccncc2)[nH]c2c1C(=O)CSC2 [Example 87]
melting point: 209 to 210 °C
//
molecule: Cc1c(-c2ccncc2)[nH]c2c1C(=O)CC(c1ccccc1)C2 (centres unmarked) [Example 56]
melting point: 256 to 257 °C

Then there is this molecule:
The reported value for COCCOC(=O)c1c(-c2ccncc2)[nH]c(-c2ccncc2)c1C [Example 20] in terms of melting point is 174 to 177 °C

---

What melting point was measured for each of the following?

For orientation, consider the following solved cases.
compound: C=Cc1[nH]c(-c2ccncc2)c(C)c1C(C)=O [Example 67]
reported.property: melting point
reported.value: 150 to 155 °C
//
compound: CC(=O)c1c(-c2ccc(F)cc2)[nH]c(-c2ccncc2)c1C [Example 51]
reported.property: melting point
reported.value: 202 to 203 °C

State the recorded melting point for every item in the following list.
1. CC(=O)c1c(-c2cccc([N+](=O)[O-])c2)[nH]c(-c2ccncc2)c1C [Example 64]
2. CCOC(=O)c1c(-c2ccncc2)[nH]c(-c2ccncc2)c1CC [Example 10]

1: 214 to 217 °C; 2: 212 to 215 °C

State the recorded melting point for every item in the following list.
1. C=CCOC(=O)c1c(-c2ccncc2)[nH]c(-c2ccncc2)c1C [Example 14]
2. CC(=O)c1c(-c2ccncc2)[nH]c(-c2ccncc2)c1C(F)(F)F [Example 4]
3. Cc1c(-c2ccncc2)[nH]c(-c2ccncc2)c1C=O [Example 26]
4. CC(=O)c1c(-c2ccsc2)[nH]c(-c2ccncc2)c1C [Example 70]
5. CC(=O)c1c(-c2cccc3ccccc23)[nH]c(-c2ccncc2)c1C [Example 61]
6. CC(=O)c1c(-c2ccc(C(F)(F)F)cc2)[nH]c(-c2ccncc2)c1C [Example 73]
7. CCOC(=O)c1c(-c2ccncc2)[nH]c(-c2ccncc2)c1-c1ccc([N+](=O)[O-])cc1 [Example 25]

1: 224 to 224.5 °C; 2: 250 to 255 °C; 3: 278 to 280 °C; 4: 240 to 244 °C; 5: 218 to 220 °C; 6: 178.5 to 179.5 °C; 7: 274 to 276 °C

State the recorded melting point for every item in the following list.
1. Cc1c(-c2ccncc2)[nH]c(-c2ccncc2)c1C(N)=O [Example 40]
2. O=C1CCCc2c(-c3ccccc3)[nH]c(-c3ccncc3)c21 [Example 54]

["212 to 215 °C", "254 to 255 °C"]

---

What melting point was measured for each of the following?

State the recorded melting point for every item in the following list.
1. CSc1ccc(-c2[nH]c(-c3ccncc3)c(C)c2C(C)=O)cc1 [Example 71]
2. CCCCOC(=O)c1c(-c2ccncc2)[nH]c(-c2ccncc2)c1C [Example 19]
3. CC(=O)c1c[nH]c(-c2ccncc2)c1C [Example 48]
4. CCCCc1c(-c2ccncc2)[nH]c(-c2ccncc2)c1C(C)=O [Example 31]
5. CC(=O)c1c(-c2ccc3ccccc3c2)[nH]c(-c2ccncc2)c1C [Example 59]

["169 to 172 °C", "182 to 186 °C", "210 to 211 °C", "93 to 95 °C", "116 to 123 °C"]

State the recorded melting point for every item in the following list.
1. Cc1c(-c2ccncc2)[nH]c(-c2ccncc2)c1C(=O)CC(C)C [Example 90]
2. Cc1c(-c2ccncc2)[nH]c2c1C(=O)C(C)(C)CC2 [Example 82 (3,5,5-trimethyl)]
3. CC(=O)c1c(-c2ccc([S+](C)[O-])cc2)[nH]c(-c2ccncc2)c1C (stereo not shown) [Example 75]
4. CC(=O)c1c(-c2cccc(N)c2)[nH]c(-c2ccncc2)c1C [Example 58]
5. Cc1c(-c2ccncc2)[nH]c(-c2ccncc2)c1S(C)(=O)=O [Example 27]
6. CC(=O)c1c(-c2ccnc3ccccc23)[nH]c(-c2ccnc3ccccc23)c1C [Example 8]
7. CC(=O)c1c(-c2ccncc2)[nH]c(-c2ccnc3ccccc23)c1C [Example 9]

199 to 201 °C
237 to 239 °C
249 to 250 °C
193 to 195 °C
232 to 234 °C
> 260 °C
237 to 239 °C

---

What melting point was measured for each of the following?

State the recorded melting point for every item in the following list.
1. CC(=O)c1c([N+](=O)[O-])[nH]c(-c2ccncc2)c1C [Example 84]
2. Cc1c(-c2ccncc2)[nH]c2c1C(=O)CC(C)(C)C2 [Example 55]
3. COC(=O)c1c(-c2ccccc2)[nH]c(-c2ccncc2)c1C [Example 91]
4. CC(=O)c1c(-c2ccco2)[nH]c(-c2ccncc2)c1C [Example 69]

187 to 188 °C
241 to 241.5 °C
202 to 204 °C
218 to 220 °C

---

reported.property: melting point

For orientation, consider the following solved cases.
compound: CC(=O)c1c(-c2cccs2)[nH]c(-c2ccncc2)c1C [Example 52]
reported.property: melting point
reported.value: 231 to 232 °C
--
compound: CCOC(=O)c1c(-c2ccncc2)[nH]c(-c2ccncc2)c1-c1ccccc1 [Example 18]
reported.property: melting point
reported.value: 99 to 100 °C
--
compound: CC(=O)c1c(-c2cccc(Oc3ccc(F)cc3)c2)[nH]c(-c2ccncc2)c1C [Example 62]
reported.property: melting point
reported.value: 158 to 159 °C
--
compound: CC(=O)c1c(-c2ccncc2)[nH]c(-c2ccncc2)c1CO [Example 33]
reported.property: melting point
reported.value: 205 to 207 °C
--
compound: CC(=O)c1c(N2CCN(c3ccccn3)CC2)[nH]c(-c2ccncc2)c1C [Example 81]
reported.property: melting point
reported.value: 89 to 92 °C
--
compound: Cc1c(-c2ccncc2)[nH]c(-c2ccncc2)c1C(=O)OC(C)(C)C [Example 16]
reported.property: melting point
reported.value: 265 to 267 °C
--
compound: CCCCC(=O)c1c(-c2ccncc2)[nH]c(-c2ccncc2)c1C [Example 6]
reported.property: melting point
reported.value: 88 to 89 °C
--
compound: CCCOC(=O)c1c(-c2ccncc2)[nH]c(-c2ccncc2)c1C [Example 17]
reported.property: melting point
reported.value: 215 to 218 °C

State the recorded melting point for every item in the following list.
1. CC(=O)c1c(-c2ccncc2)[nH]c(-c2ccncc2)c1-c1ccccc1 [Example 7]
2. CC(=O)c1c(-c2ccncc2)[nH]c(-c2ccccc2)c1C [Example 47]
3. Cc1c(-c2ccncc2)[nH]c2c1C(=O)CCC2 [Example 49]
4. Cc1c(-c2ccncc2)[nH]c2c1C(=O)CC(C)C2 (stereo not shown) [Example 86]
5. COCc1c(-c2ccncc2)[nH]c(-c2ccncc2)c1C(=O)OC [Example 24]

["208 to 210 °C", "208 to 209 °C", "248 to 249 °C", "247 to 248 °C", "97 to 99 °C"]

State the recorded melting point for every item in the following list.
1. CCC(=O)c1c(-c2ccncc2)[nH]c(-c2ccncc2)c1C [Example 5]
2. CCc1c(-c2ccncc2)[nH]c(-c2ccncc2)c1C(C)=O [Example 28]
3. CC(=O)c1c(C=O)[nH]c(-c2ccncc2)c1C [Example 88]
4. CCC(=O)c1c(-c2ccncc2)[nH]c(-c2ccncc2)c1CC [Example 3]
5. CC(=O)c1c(-c2ccc(Cl)cc2)[nH]c(-c2ccncc2)c1C [Example 68]
6. CC(=O)c1c(-c2ccccc2)[nH]c(-c2ccncc2)c1C [Example 46]
7. Cc1c(-c2ccncc2)[nH]c(-c2ccncc2)c1C(=O)OCc1ccccc1 [Example 13]
8. CC(=O)c1c(N2C[C@@H](C)O[C@@H](C)C2)[nH]c(-c2ccncc2)c1C [Example 80]

1: 237 to 238 °C; 2: 241 to 243 °C; 3: 208 to 209 °C; 4: 209 to 211 °C; 5: 187.5 to 189.5 °C; 6: 202 to 203 °C; 7: 204 to 205 °C; 8: 95 to 100 °C

State the recorded melting point for every item in the following list.
1. CC(=O)c1c(-c2ccc(C=O)cc2)[nH]c(-c2ccncc2)c1C [Example 60]
2. CC(=O)c1c(N2CCN(c3ccccc3)CC2)[nH]c(-c2ccncc2)c1C [Example 78]
3. CC(=O)c1c(-c2cccnc2)[nH]c(-c2ccncc2)c1C [Example 65]

1: 97 to 100 °C; 2: 218 to 220 °C; 3: 182 to 186 °C

The reported value for CC(=O)c1c(CO)[nH]c(-c2ccncc2)c1C [Example 89] in terms of melting point is 163 to 165 °C

Hello, the source for this data is patent US6417202B1, in case you need it.
